system: Streptococcus sp. 'group A'; test: Streptococcus pyogenes SK(-)GAS viability under kanamycin – luminescence, BacTiterGlo, confirmation, counter-screen for streptokinase expression inhibitor project, dose response (AID 1900); assay type: functional, organism-based
Active and inactive are the calls of the source.
Exercise: state measured EC50 for each of the compounds provided.

| Compound | Measured Quantity | Measured Result |
| --- | --- | --- |
| O=[N+]([O-])c1ccc(/C=N/Nc2nc(N3CCCCCC3)nc(N3CCCCCC3)n2)o1 | EC50 | 504 nM (active) |
| COCC1=C(C(=O)OC(C)OC(=O)OC(C)C)N2C(=O)[C@@H](NC(=O)/C(=N\OC)c3csc(N)n3)[C@H]2SC1 (stereo partly specified) | EC50 | 697 nM (active) |
| CCCCCCn1c(=O)c(C(=O)N/N=C/c2cccc(F)c2)c(O)c2ccccc21 | EC50 | 11600 nM (active) |
| O=C1c2ccccc2C(=O)c2[nH]c(O)nc21 | EC50 | 4230 nM (active) |

Give me EC50 for each of these compounds, listed below.
1. CC/C(=C\C1CCCCC1)C(NP(=O)(c1ccccc1)c1ccccc1)c1ccccc1 (stereo unspecified)
2. CC(C)/C(=N/Nc1ccccc1[N+](=O)[O-])c1ccccc1

Response given:
["1680 nM (active)", "6630 nM (active)"]

====

biological target: Apoptotic protease-activating factor 1 (Homo sapiens); assay type: functional
Sequence (O14727 whole entry): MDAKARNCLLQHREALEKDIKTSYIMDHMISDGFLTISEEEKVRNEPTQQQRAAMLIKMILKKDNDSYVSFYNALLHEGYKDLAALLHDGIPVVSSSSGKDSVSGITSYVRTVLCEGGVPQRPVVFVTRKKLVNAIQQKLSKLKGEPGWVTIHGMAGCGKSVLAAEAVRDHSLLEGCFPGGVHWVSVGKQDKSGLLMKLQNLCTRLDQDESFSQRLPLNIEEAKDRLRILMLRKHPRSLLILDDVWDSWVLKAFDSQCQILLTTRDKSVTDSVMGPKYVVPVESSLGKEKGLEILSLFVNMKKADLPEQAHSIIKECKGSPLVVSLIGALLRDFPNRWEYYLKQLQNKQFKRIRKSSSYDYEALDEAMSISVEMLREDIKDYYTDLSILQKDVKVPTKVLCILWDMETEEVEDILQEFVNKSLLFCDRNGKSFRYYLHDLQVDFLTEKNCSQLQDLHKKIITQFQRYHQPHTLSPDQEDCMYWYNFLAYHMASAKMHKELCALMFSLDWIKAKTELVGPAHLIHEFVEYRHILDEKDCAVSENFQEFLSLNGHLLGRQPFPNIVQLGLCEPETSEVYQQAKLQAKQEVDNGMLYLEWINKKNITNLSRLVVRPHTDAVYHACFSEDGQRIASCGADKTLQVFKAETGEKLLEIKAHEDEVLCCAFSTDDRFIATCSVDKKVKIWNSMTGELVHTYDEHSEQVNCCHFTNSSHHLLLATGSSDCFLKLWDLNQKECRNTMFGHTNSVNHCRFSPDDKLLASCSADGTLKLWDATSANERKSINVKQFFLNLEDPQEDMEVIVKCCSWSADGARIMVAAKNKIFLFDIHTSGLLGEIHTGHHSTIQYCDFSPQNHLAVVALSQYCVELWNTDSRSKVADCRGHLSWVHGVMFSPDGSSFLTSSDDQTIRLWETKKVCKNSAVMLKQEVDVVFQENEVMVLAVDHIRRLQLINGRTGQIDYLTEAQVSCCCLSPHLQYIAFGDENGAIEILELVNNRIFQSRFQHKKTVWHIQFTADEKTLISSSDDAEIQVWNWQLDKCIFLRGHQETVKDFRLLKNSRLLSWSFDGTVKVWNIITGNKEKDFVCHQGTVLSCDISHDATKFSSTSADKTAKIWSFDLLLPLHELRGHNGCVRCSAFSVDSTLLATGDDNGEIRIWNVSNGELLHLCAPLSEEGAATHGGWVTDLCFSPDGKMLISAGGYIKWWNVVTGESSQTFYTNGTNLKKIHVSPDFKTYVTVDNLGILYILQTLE
Active and inactive are the calls of the source.
Measured Quantity: IC50

| Compound | Test System | IC50 |
| --- | --- | --- |
| O=C1c2ccccc2C(=O)c2[nH]c(O)nc21 | Apoptotic protease-activating factor 1 (Homo sapiens) | 6790 nM (active) |
| COC(=O)c1cc(C)nc2c1C(=O)C(=O)C=C2N1CCOCC1 | Apoptotic protease-activating factor 1 (Homo sapiens) | 1010 nM (active) |
| N#Cc1c(N2CCCC2)nc(N)c2c(N)nc(N3CCCC3)cc12 | Apoptotic protease-activating factor 1 (Homo sapiens) | 181 nM (active) |
| CCOC(=O)c1c2c(n(C)c1C)C(=O)C(=O)c1ccc(Br)cc1-2 | Apoptotic protease-activating factor 1 (Homo sapiens) | 797 nM (active) |

Then there is this compound:
Challenge: Which IC50 reading was recorded for the compound CCOC(=O)C1=C(C)OC2(O)c3ccccc3C(=O)C12O (stereo not given) ?
Response given: 2550 nM (active)

====

biological target: Fatty acid synthase (Homo sapiens, UniProt P49327); assay: inhibition of human FAS-TE enzyme activity – biochemical, kinetic fluorescence intensity, dose response (AID 624326); assay type: functional;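 note: rate of fluorescence rise from hydrolysis of a fluorogenic O-methyl fluorescein ester substrate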
Sequence (P49327 whole entry): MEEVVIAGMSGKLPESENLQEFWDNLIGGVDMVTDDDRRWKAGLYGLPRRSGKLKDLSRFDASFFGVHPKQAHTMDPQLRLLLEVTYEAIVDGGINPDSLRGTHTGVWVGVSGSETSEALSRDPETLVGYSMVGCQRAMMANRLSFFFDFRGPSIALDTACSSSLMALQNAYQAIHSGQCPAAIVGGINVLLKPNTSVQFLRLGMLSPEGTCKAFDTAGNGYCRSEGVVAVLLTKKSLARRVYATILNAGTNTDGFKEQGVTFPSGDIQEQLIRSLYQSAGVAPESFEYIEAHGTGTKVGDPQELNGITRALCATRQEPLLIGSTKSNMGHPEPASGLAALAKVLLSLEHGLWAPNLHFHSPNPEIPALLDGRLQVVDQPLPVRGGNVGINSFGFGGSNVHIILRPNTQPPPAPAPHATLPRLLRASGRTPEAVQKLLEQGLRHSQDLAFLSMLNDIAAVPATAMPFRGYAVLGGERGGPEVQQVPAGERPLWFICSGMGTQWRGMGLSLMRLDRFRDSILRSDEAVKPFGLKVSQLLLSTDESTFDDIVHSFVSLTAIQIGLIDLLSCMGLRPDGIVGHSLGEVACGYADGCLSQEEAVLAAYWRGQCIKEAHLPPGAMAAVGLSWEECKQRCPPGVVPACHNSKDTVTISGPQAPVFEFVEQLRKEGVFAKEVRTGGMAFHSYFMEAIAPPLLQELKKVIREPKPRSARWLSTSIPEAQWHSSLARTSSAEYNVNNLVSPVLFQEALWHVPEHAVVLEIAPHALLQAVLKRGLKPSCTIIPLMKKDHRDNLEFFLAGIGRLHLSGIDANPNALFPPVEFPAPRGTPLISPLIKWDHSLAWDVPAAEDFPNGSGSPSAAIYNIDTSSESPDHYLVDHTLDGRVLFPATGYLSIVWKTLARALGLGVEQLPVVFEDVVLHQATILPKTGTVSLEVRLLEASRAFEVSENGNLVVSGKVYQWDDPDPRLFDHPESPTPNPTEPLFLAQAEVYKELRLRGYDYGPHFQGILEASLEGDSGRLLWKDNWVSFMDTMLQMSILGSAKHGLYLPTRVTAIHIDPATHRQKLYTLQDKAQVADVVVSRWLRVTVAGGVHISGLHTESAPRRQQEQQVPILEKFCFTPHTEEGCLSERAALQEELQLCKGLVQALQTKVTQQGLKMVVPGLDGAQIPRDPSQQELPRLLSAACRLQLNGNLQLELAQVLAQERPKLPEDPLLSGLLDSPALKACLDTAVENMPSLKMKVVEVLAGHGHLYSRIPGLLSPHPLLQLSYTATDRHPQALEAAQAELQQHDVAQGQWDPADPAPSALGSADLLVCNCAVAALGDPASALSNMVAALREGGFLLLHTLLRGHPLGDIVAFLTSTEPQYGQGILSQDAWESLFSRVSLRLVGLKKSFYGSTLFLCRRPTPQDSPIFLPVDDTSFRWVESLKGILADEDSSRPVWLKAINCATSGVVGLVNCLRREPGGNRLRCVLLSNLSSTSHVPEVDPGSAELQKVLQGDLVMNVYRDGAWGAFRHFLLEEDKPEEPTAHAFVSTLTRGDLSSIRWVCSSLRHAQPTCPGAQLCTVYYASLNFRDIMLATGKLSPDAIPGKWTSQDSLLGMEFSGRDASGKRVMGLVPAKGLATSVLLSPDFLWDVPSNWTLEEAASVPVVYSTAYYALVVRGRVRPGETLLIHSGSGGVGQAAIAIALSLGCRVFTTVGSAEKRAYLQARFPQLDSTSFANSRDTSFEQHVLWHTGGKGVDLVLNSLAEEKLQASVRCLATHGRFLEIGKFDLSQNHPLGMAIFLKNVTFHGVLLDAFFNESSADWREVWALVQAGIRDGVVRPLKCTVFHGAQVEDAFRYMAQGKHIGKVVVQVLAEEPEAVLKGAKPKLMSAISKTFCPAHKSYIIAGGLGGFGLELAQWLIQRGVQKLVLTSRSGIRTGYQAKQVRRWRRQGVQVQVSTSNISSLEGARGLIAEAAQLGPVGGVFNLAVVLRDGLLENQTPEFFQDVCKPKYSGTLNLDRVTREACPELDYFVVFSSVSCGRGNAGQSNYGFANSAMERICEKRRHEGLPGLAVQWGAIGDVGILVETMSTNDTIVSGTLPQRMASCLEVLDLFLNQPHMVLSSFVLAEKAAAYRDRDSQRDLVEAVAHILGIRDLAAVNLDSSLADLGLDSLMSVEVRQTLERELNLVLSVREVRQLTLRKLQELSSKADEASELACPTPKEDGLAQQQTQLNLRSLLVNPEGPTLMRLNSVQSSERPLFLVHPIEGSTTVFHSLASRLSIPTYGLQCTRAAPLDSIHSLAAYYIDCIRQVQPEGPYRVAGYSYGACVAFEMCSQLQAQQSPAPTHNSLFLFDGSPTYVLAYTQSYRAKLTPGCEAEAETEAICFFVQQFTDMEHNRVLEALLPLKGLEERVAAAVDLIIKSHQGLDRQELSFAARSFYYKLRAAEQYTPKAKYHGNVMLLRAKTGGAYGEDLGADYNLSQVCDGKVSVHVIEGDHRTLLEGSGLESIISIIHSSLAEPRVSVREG
The source made the active and inactive calls.
Exercise: state measured IC50 for each of the compounds provided.

// known answers, use as guide
| Compound | Measured Quantity | Measured Result |
| --- | --- | --- |
| COc1ccc(C2=NN(CN3C(=O)C(=O)c4ccccc43)C(c3cccc([N+](=O)[O-])c3)C2)cc1 (stereo unspecified) | IC50 | 13 µM (active) |
| COc1ccc(C(=O)N/C(=C\c2ccc([N+](=O)[O-])cc2)C(=O)NC(CCSC)C(=O)O)cc1 (stereo unspecified) | IC50 | 5.76 µM (active) |
| CCCCCOC(=O)C1=C(C)NC(=O)NC1c1ccc([N+](=O)[O-])cc1 (stereo unspecified) | IC50 | 14.9 µM (active) |
| COc1ccc(CNC(=O)/C=C/c2cc([N+](=O)[O-])ccc2OC(F)F)cc1 | IC50 | 1.37 µM (active) |
| O=C1c2ccccc2C(=O)N1OS(=O)(=O)c1ccc(F)cc1 | IC50 | 3.91 µM (active) |

Challenge: Which IC50 reading was recorded for the compound `O=[N+]([O-])c1ccc(NC(S)=NCCc2ccccc2)cc1` ?
Response given: 15 µM (active)

====

assay: NIH3T3 cell viability loss – ATP luminescence, mouse fibroblasts, counter-screen, dose response (AID 2010); type: functional, cell-based;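 note: cells exposed to compound for about 90 hours before reading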
Calls of active or inactive are those of the source.
Measured Quantity: EC50

// known answers, use as guide
| Molecule | EC50 |
| --- | --- |
| CC1CCN(S(=O)(=O)c2ccc(NC(=O)CN3CCN(C)CC3)cc2)CC1 | > 60 µM (not active) |
| COC(=O)c1cc(C)nc2c1C(=O)C(=O)C=C2N1CCOCC1 | > 16 µM (not active) |
| O=C(Cn1cnc2cc([N+](=O)[O-])ccc2c1=O)Nc1ccc2c(c1)CCC2 | > 60 µM (not active) |
| CC1Cc2ccccc2N1C(=O)CSc1nc2c(c(=O)n(C)c(=O)n2C)n1Cc1ccccc1 (stereo unspecified) | > 60 µM (not active) |

Give me EC50 for each of these molecules, listed below.
1. CCCCCCCCC/C(=N\O)c1ccccn1
2. CCN(CC)CCn1c2ccccc2c2cnc(N)c(C#N)c21

Response given:
["> 30 µM (not active)", "9.47 µM (active)"]

Give me EC50 for each of these molecules, listed below.
1. CC(C)(C)c1ccc(/C=C/C(=O)c2ccc(NC3=NCCCS3)cc2)cc1
2. Cc1ccc(NC(=O)c2cc([N+](=O)[O-])ccc2NCc2cccnc2)cc1Cl

Response given:
> 60 µM (not active)
> 60 µM (not active)

====

Target: Leucine aminopeptidase (Plasmodium falciparum 3D7, UniProt Q8IL11)
Sequence (Q8IL11 whole entry): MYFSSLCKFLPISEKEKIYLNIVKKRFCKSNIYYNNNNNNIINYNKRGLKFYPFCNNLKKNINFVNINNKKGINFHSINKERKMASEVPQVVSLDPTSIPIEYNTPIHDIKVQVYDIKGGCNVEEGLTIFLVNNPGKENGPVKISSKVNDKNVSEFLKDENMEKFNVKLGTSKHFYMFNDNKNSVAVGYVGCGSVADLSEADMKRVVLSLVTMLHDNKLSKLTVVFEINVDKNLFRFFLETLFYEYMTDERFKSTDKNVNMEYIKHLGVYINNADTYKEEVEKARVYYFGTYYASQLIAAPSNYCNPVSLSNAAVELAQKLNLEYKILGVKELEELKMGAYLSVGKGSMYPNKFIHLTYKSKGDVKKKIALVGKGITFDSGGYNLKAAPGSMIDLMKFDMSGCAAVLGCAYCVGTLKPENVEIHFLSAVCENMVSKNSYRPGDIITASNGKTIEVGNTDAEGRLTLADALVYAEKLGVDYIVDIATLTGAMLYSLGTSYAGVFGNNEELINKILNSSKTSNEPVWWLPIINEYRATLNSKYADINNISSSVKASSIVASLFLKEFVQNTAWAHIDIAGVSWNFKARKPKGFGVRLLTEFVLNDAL
Experiment: P. falciparum M17LAP inhibitors, primary screen, biochemical, fluorogenic H-Leu-NHMec substrate, 1536-well (AID 1619)
Assay type: functional
Active and inactive are the calls of the source.
Measured Quantity: IC50

// known answers, use as guide
| Compound | Measured Result |
| --- | --- |
| Cc1cccc(NC(=O)CN2NS(=O)(=O)c3ccccc3C2=O)c1 | 7.74 µM (active) |
| Nc1n[nH]c(N)c1N=Nc1cccc(F)c1 | 5.51 µM (active) |
| O=C(CN1C(=O)c2ccccc2S1(=O)=O)Nc1ccccc1 | 24.6 µM (active) |
| Cc1ccc(O)c(C(=O)c2coc(=N)c(C(=O)NC(C)C)c2)c1 | 4.66 µM (active) |
| O=C(O)C1CCCCC1C(=O)Nc1ccc(Cl)cc1Cl (centres undefined) | 14.3 µM (active) |

Give me IC50 for each of these compounds, listed below.
1. CC(C)(C)c1ccc(C(=O)CSc2nnc[nH]2)cc1
2. COc1ccc(NC(=O)CSc2[nH]c(=O)cc(C)c2C#N)cc1OC
3. Cc1ccc(NC(=O)CN2C(=O)N/C(=C/c3ccco3)C2=O)cc1

Response given:
1. 46 µM (active)
2. 16.2 µM (active)
3. 37.8 µM (active)

Challenge: Which IC50 reading was recorded for the compound `Cc1c(O)n(-c2ccccc2)c(SCC(=O)Nc2ccc3c4c(cccc24)CC3)nc1=O` ?
Response given: 5.11 µM (active)

====

target: Replicative DNA helicase DnaB (Mycobacterium tuberculosis, UniProt P9WMR3); assay: DnaB intein splicing inhibitors, dose response, biochemical, cell-free fluorescence (AID 449749); type: functional
Active and inactive are the calls of the source.
Result category, one only: T (active), F (inactive)

Please review the following examples before continuing.
| Compound | Test System | Group |
| --- | --- | --- |
| CCCCCC(=O)Cc1cc(O)cc2c1C(=O)Oc1cc(O)c(C(=O)O)c(CCCCC)c1O2 | Replicative DNA helicase DnaB (Mycobacterium tuberculosis, UniProt P9WMR3) | T |
| CC(C)(C)OC(=O)N1CC=C2C(C#N)=C(N)C(C#N)(C#N)C(c3cccs3)C2C1 (centres undefined) | Replicative DNA helicase DnaB (Mycobacterium tuberculosis, UniProt P9WMR3) | F |
| Cc1[nH]n(-c2ccccc2)c(=O)c1C(C[N+](=O)[O-])c1ccc(Cl)cc1 (centres undefined) | Replicative DNA helicase DnaB (Mycobacterium tuberculosis, UniProt P9WMR3) | T |

Pending compound:
Challenge: Recorded test call requested for `Cc1ccc(-c2cc(-c3ccc(C)cc3)[n+](-c3ccc(C(=O)[O-])cc3)c(-c3ccc(C)cc3)c2)cc1`
Response given: T
